targetDesc: T1, IL-18 receptor (IL-18Rα and IL-18Rβ) (UniProt Q13478 19-541; O95256 20-599, limits assumed)
T1 sequence (looked up) 1: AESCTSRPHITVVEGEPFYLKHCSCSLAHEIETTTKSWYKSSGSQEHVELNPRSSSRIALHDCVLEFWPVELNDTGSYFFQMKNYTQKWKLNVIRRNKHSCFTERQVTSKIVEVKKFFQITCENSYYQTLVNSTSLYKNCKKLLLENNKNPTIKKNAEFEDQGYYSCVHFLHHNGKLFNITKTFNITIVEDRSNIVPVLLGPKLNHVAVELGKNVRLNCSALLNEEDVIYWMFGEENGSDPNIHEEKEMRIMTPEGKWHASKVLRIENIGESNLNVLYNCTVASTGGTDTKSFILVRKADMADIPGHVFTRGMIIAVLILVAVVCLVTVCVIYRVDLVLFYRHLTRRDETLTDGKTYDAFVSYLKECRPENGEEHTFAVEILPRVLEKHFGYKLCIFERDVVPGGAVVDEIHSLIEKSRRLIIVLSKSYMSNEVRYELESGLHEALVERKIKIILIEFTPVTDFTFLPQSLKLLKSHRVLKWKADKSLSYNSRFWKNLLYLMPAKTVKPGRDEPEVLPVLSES
T1 sequence (looked up) 2: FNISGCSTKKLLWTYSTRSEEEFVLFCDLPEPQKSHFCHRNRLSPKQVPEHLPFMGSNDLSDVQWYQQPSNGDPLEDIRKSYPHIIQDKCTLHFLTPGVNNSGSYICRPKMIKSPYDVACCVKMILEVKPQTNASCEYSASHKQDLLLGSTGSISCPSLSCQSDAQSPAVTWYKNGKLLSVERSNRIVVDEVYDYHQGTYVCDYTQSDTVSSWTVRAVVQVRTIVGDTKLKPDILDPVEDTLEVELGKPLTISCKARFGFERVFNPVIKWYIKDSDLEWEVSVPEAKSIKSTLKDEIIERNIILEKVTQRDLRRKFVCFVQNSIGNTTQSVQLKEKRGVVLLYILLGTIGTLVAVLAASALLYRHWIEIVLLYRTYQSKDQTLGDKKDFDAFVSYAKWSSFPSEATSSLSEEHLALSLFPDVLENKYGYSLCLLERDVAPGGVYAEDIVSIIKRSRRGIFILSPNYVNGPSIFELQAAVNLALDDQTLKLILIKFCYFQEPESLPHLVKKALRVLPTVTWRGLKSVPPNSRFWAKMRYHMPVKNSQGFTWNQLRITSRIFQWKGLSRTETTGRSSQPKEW
assaySummary: cell-based or functional assay

- binder: "hIL18 (G3T, K53S, M60K) - KiH (Fc fusion) YFTKLESKLSVIRNLNDQVLFIDQGNRPLFEDMTDSDMRDNAPRTIFIISMYSDSQPRGKAVTISVKSEKISTLSSENKIISFKEMNPPDNIKDTKSDIIFFQRSVPGHDNKMQFESSSYEGYFLASEKERDLFKLILKKEDELGDRSIMFTVQNED"
  EC50 (pM), PBMC IFN gamma assay, average: 906
- binder: "hIL18 (G3T, E6K, K53A, M60K) - KiH (Fc fusion) YFTKLKSKLSVIRNLNDQVLFIDQGNRPLFEDMTDSDMRDNAPRTIFIISMYADSQPRGKAVTISVKSEKISTLSSENKIISFKEMNPPDNIKDTKSDIIFFQRSVPGHDNKMQFESSSYEGYFLASEKERDLFKLILKKEDELGDRSIMFTVQNED"
  EC50 (pM), PBMC IFN gamma assay, average: 16
- binder: "hIL18 (G3V, K53A, M60K) - KiH (Fc fusion) YFVKLESKLSVIRNLNDQVLFIDQGNRPLFEDMTDSDMRDNAPRTIFIISMYADSQPRGKAVTISVKSEKISTLSSENKIISFKEMNPPDNIKDTKSDIIFFQRSVPGHDNKMQFESSSYEGYFLASEKERDLFKLILKKEDELGDRSIMFTVQNED"
  EC50 (pM), PBMC IFN gamma assay, average: 60.6

Value source: patent US20240182536A1
